# SYSTEM NAME: human serotonin transporter (Homo sapiens)
# Construct: expressed in transfected cells; host or cells: HEK-293
# METHOD NOTES: hSERT Receptor Binding ([125I]-RTI-55 displacement, HEK-293 membranes)
# CONDITION LABEL: hSERT, HEK-293 cell membranes, 50 pM [125I]-RTI-55, Ki from IC50 by Cheng-Prusoff; read-out: SERT Ki
Entries and their log10 Ki values follow.
MEASURED PARAMETER: log10 Ki (log10 of the value in nM)

MOLECULE | log10 Ki
COCCOc1ncccc1OC[C@H]1CNCC[C@@H]1c1ccccc1 [Example 10] | 1.27
CCCOc1ncccc1OC[C@H]1CNCC[C@@H]1c1ccccc1 [Example 8] | 1.23
Cc1cc(C(N)=O)cc(C)c1OC[C@@H]1CNCC[C@H]1c1ccccc1 [Example 34] | 3.54
COCCOc1ncccc1OC[C@@H]1CNCC[C@H]1c1ccccc1 [Example 11] | 2.27
CC(C)COc1ncccc1OC[C@@H]1CNCC[C@H]1c1ccccc1 [Example 15] | 1.32
CCOc1ncccc1OC[C@H]1CNCC[C@@H]1c1ccccc1 (single isomer, unassigned) [Example 1] | 1.39
CC(C)Oc1ncccc1OC[C@@H]1CNCC[C@H]1c1ccccc1 [Example 12] | 1.61
Cc1nccnc1OC[C@@H]1CNCC[C@H]1c1ccccc1 [Example 28] | 3.33
CS(=O)(=O)c1ccccc1OC[C@@H]1CNCC[C@H]1c1ccccc1 [Example 40] | 3.75

----------
# SYSTEM NAME: human norepinephrine transporter (Homo sapiens, UniProt P23975)
# Construct: expressed in transfected cells; host or cells: HEK-293
# Sequence (P23975 whole entry): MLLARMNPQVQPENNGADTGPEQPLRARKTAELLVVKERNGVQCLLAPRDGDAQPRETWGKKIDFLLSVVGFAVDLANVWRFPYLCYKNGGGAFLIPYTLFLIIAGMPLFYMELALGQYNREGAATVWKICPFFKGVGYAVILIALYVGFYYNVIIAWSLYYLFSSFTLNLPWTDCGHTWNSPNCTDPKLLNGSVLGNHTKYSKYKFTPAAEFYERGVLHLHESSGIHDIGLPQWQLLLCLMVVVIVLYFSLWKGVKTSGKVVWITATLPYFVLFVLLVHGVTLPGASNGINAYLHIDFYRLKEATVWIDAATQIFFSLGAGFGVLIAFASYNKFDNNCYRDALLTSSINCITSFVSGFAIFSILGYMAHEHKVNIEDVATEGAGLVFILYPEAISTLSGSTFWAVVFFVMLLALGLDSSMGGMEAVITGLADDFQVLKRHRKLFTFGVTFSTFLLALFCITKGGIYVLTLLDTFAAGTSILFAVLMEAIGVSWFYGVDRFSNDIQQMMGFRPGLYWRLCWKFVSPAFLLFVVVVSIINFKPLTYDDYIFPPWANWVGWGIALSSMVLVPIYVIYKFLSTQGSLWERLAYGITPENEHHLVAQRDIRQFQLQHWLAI
# METHOD NOTES: hNET Receptor Binding ([125I]-RTI-55 displacement, HEK-293 membranes)
# CONDITION LABEL: hNET, HEK-293 cell membranes, 50 pM [125I]-RTI-55, Ki from IC50 by Cheng-Prusoff; read-out: NET Ki
Entries and their log10 of Ki values follow.
MEASURED PARAMETER: log10 of Ki (log10 of the value in nM)

COMPOUND | log10 of Ki
CCOc1ccccc1OC[C@@H]1CNCC[C@H]1c1ccccc1 [Example 18] | 0.24
COCc1cc(OC[C@@H]2CNCC[C@H]2c2ccccc2)[nH]n1 [Example 23] | 3.18
N#Cc1cccc(OC[C@@H]2CNCC[C@H]2c2ccccc2)c1 [Example 25] | 2.03
N#Cc1ccc(OC[C@@H]2CNCC[C@H]2c2ccccc2)cc1 [Example 26] | 1.87
Cn1nc(OC[C@@H]2CNCC[C@H]2c2ccccc2)cc1C(F)(F)F [Example 24] | 2.72
CCCOc1ncccc1OC[C@H]1CNCC[C@@H]1c1ccccc1 [Example 8] | 3.12
Cc1cccc(OC[C@@H]2CNCC[C@H]2c2ccccc2)n1 [Example 46] | 2.37
COc1ncccc1OC[C@@H]1CNCC[C@H]1c1ccccc1 [Example 7] | 0.52

----------
# SYSTEM NAME: human norepinephrine transporter (Homo sapiens, UniProt P23975)
# Construct: expressed in transfected cells; host or cells: HEK-293
# METHOD NOTES: hNET Receptor Binding ([125I]-RTI-55 displacement, HEK-293 membranes)
# CONDITION LABEL: hNET, HEK-293 cell membranes, 50 pM [125I]-RTI-55, Ki from IC50 by Cheng-Prusoff; read-out: NET Ki
MEASURED PARAMETER: log10 Ki (log10 of the value in nM)

MOLECULE | SYSTEM NAME | log10 Ki
c1ccc([C@@H]2CCNC[C@H]2COc2ccccc2C2CCCCC2)cc1 (relative stereo) [Example 51] | human norepinephrine transporter (Homo sapiens, UniProt P23975) | 1.88
c1ccc([C@@H]2CCNC[C@H]2COc2ccnc3ccsc23)cc1 [Example 35] | human norepinephrine transporter (Homo sapiens, UniProt P23975) | 1.16
NC(=O)c1ccc(OC[C@@H]2CNCC[C@H]2c2ccccc2)cc1 [Example 38] | human norepinephrine transporter (Homo sapiens, UniProt P23975) | 1.08
FC(F)(F)c1ccc(OC[C@H]2CNCC[C@@H]2c2ccccc2)nc1 [Example 4] | human norepinephrine transporter (Homo sapiens, UniProt P23975) | 3.27
COc1nccnc1OC[C@@H]1CNCC[C@H]1c1ccccc1 [Example 45] | human norepinephrine transporter (Homo sapiens, UniProt P23975) | 1.56
CCCOc1ncccc1OC[C@@H]1CNCC[C@H]1c1ccccc1 [Example 9] | human norepinephrine transporter (Homo sapiens, UniProt P23975) | 0.48
COc1cccc(F)c1OC[C@@H]1CNCC[C@H]1c1ccccc1 [Example 41] | human norepinephrine transporter (Homo sapiens, UniProt P23975) | 0.59
CCCc1ccccc1OC[C@@H]1CNCC[C@H]1c1ccccc1 (relative stereo) [Example 50] | human norepinephrine transporter (Homo sapiens, UniProt P23975) | 1.20
CS(=O)(=O)c1ccccc1OC[C@@H]1CNCC[C@H]1c1ccccc1 [Example 40] | human norepinephrine transporter (Homo sapiens, UniProt P23975) | 2.88
CNC(=O)c1ccc(OC[C@@H]2CNCC[C@H]2c2ccccc2)cc1 [Example 29] | human norepinephrine transporter (Homo sapiens, UniProt P23975) | 2.49
FC(F)(F)c1ccc(OC[C@@H]2CNCC[C@H]2c2ccccc2)nc1 [Example 19] | human norepinephrine transporter (Homo sapiens, UniProt P23975) | 2.16
CCOc1ccccc1OC[C@@H]1CNCC[C@H]1c1ccccc1 (relative stereo) [Example 48] | human norepinephrine transporter (Homo sapiens, UniProt P23975) | 0.32
CC(C)c1ccccc1OC[C@@H]1CNCC[C@H]1c1ccccc1 (relative stereo) [Example 49] | human norepinephrine transporter (Homo sapiens, UniProt P23975) | 1.29
CNC(=O)c1ccc(OC[C@@H]2CNCC[C@H]2c2ccccc2)c(OC)c1 [Example 30] | human norepinephrine transporter (Homo sapiens, UniProt P23975) | 2.73
Cc1cc(C(N)=O)cc(C)c1OC[C@@H]1CNCC[C@H]1c1ccccc1 [Example 34] | human norepinephrine transporter (Homo sapiens, UniProt P23975) | 3.16
CCOc1ncccc1OC[C@H]1CNCC[C@@H]1c1ccccc1 (single isomer, unassigned) [Example 1] | human norepinephrine transporter (Homo sapiens, UniProt P23975) | 0.58
CCOc1ncccc1OC[C@H]1CNCC[C@@H]1c1ccccc1 [Example 2] | human norepinephrine transporter (Homo sapiens, UniProt P23975) | 3.52

----------
Entries and their pKi values follow.
# SYSTEM NAME: human serotonin transporter (Homo sapiens)
# Construct: expressed in transfected cells; host or cells: HEK-293
# METHOD NOTES: hSERT Receptor Binding ([125I]-RTI-55 displacement, HEK-293 membranes)
# CONDITION LABEL: hSERT, HEK-293 cell membranes, 50 pM [125I]-RTI-55, Ki from IC50 by Cheng-Prusoff; read-out: SERT Ki
pKi: −log10 of the molar value.
MEASURED PARAMETER: pKi

COMPOUND | SYSTEM NAME | VALUE MEASURED
COCCCOc1ncccc1OC[C@@H]1CNCC[C@H]1c1ccccc1 | human serotonin transporter (Homo sapiens) | 6.79
CC(C)c1ccccc1OC[C@@H]1CNCC[C@@H]1c1ccccc1 (relative stereo) | human serotonin transporter (Homo sapiens) | 6.68
FC(F)(F)c1ccc(OC[C@H]2CNCC[C@@H]2c2ccccc2)nc1 | human serotonin transporter (Homo sapiens) | 7.82
CCOc1ncccc1OC[C@@H]1CNCC[C@H]1c1cccc(F)c1 (racemic) | human serotonin transporter (Homo sapiens) | 7.97
N#Cc1cccc(OC[C@@H]2CNCC[C@H]2c2ccccc2)c1 | human serotonin transporter (Homo sapiens) | 8.60
Cn1nc(OC[C@H]2CNCC[C@@H]2c2ccccc2)cc1C(F)(F)F | human serotonin transporter (Homo sapiens) | 8.57
Cn1nc(C(F)(F)F)cc1OC[C@@H]1CNCC[C@H]1c1ccccc1 | human serotonin transporter (Homo sapiens) | 7.20
CC(C)c1ccccc1OC[C@@H]1CNCC[C@H]1c1ccccc1 (relative stereo) | human serotonin transporter (Homo sapiens) | 7.08
COc1ncccc1OC[C@H]1CNCC[C@@H]1c1ccccc1 | human serotonin transporter (Homo sapiens) | 9.28
COCc1ncccc1OC[C@@H]1CNCC[C@H]1c1ccccc1 | human serotonin transporter (Homo sapiens) | 6.05
Cn1nc(OC[C@@H]2CNCC[C@H]2c2ccccc2)cc1C(F)(F)F | human serotonin transporter (Homo sapiens) | 7.06
c1ccc([C@@H]2CCNC[C@H]2COc2cccnc2OC2CCOCC2)cc1 | human serotonin transporter (Homo sapiens) | 6.17

----------
# SYSTEM NAME: human serotonin transporter (Homo sapiens, UniProt P31645)
# Construct: expressed in transfected cells; host or cells: HEK-293
# Sequence (P31645 whole entry): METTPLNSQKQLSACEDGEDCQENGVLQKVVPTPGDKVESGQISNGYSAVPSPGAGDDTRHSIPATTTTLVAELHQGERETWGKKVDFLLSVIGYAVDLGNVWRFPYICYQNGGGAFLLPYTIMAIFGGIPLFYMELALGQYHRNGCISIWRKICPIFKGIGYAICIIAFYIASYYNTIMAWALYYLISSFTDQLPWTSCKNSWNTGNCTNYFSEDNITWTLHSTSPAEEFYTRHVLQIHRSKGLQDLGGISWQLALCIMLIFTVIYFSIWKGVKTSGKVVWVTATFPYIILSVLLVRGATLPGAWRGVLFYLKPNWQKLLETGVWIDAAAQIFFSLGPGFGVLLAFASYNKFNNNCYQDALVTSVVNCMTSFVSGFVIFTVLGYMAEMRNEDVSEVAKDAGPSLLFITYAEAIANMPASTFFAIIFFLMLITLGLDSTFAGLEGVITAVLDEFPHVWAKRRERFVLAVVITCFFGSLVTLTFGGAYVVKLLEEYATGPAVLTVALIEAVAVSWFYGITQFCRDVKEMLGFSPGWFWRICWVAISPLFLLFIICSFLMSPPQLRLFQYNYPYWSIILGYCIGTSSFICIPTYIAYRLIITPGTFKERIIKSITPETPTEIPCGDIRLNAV
# METHOD NOTES: hSERT Receptor Binding ([125I]-RTI-55 displacement, HEK-293 membranes)
pKi: −log10 of the molar value.

COMPOUND | pKi
CCOc1ncccc1OC[C@@H]1CNCC[C@@H]1c1ccc(F)cc1 (single isomer, unassigned) [Example 57] | 7.46
CCOc1ncccc1OC[C@@H]1CNCC[C@H]1c1ccc(F)cc1 (racemic) [Example 58] | 8.22
